# TEST: plasmodial surface anion channel blockers, osmotic lysis – cell-based, P. falciparum Indochina, OD700, 1 h, primary screen (AID 1154)
# RUN_PARAMETERS: P. falciparum Indochina infected RBC osmotic lysis, higher = more signal, called active from +8 up or from −8 down
METRIC: z-score

[[record]]
compound = "CN1C(=O)C2C=CC(C(O)c3ccc(Br)cc3)N(Nc3ccccc3)C2C1=O (stereo not drawn)"
result = 0.884

[[record]]
compound = "COCCOC(=O)N1C(=O)[C@@]2(c3cc(C#CCC(C(=O)OC)C(=O)OC)ccc31)[C@H](c1ccc(OCCO)cc1)N1[C@H](c3ccccc3)[C@H](c3ccccc3)OC(=O)[C@H]1[C@@H]2C(=O)NC[C@H](O)c1ccccc1"
result = 3.79

[[record]]
compound = "COc1ccc(C(=O)Nc2cccc(CN3C(=O)[C@@]4(O[C@@H](CCn5cc([C@H](O)c6ccccc6)nn5)[C@H]([Si](C)(C)c5ccc(OC)cc5)[C@H]4C)c4ccccc43)c2)cc1"
result = 4.91


###

# EXPERIMENTAL_SYSTEM: Pro-neuregulin-1, membrane-bound isoform (Homo sapiens)
# TEST: small molecules binding neuregulin-1 protein – biochemical, small-molecule microarray, fluorescence 635/667, psychiatric disease protein project, primary screen (AID 1075);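 further: score combines 667 nm spot fluorescence with signal to noise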
# RUN_PARAMETERS: NRG1 binding, 635 nm fluorescence, higher = more signal
Reported values of composite z-score for individual entries
METRIC: composite z-score

[[record]]
molecule = "COC(=O)[C@@]1(Cc2ccc(OC)cc2)[C@H]2c3cc(C(=O)N4CCCC4)n(CCN4CCOCC4)c3C[C@H]2CN1C(=O)c1ccccc1"
result = 2.23

[[record]]
molecule = "C=CCC(OC(C)=O)[C@@H]1[C@@H](N(Cc2cc3ccccc3o2)C(=O)c2cccc3ccccc23)c2cc(OCCCO)ccc2N1C(=O)Cc1ccc2ccccc2c1 (some centres undefined)"
result = 0.144

[[record]]
molecule = "CC1CC/C=C\\[C@H]2OC34C=CCN(Cn5nnc6ccccc65)C(=O)[C@H]3N(CCCO)C(=O)[C@@H]4C2C(=O)O1 (some centres undefined)"
result = 1.38

[[record]]
molecule = "O=C1OCCC/C=C\\[C@H]2OC34C=CCN(CCN5CCOCC5)C(=O)[C@H]3N(CCO)C(=O)[C@@H]4C12 (some centres undefined)"
result = -0.501


###

# Test system: Neuregulin-1 EGF-like domain
# TEST: small molecules binding NRG1 EGF domain – biochemical, small-molecule microarray, 635 nm fluorescence, primary screen (AID 1081);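 further: binding of the protein to compounds printed on small-molecule microarray slides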
# RUN_PARAMETERS: higher = more signal
Reported composite z-score values for the following compounds.
METRIC: composite z-score

[[record]]
smiles_entry = "C[n+]1ccc2ccc(O)cc2c1"
metric = "composite z-score"
result = 0.767

[[record]]
smiles_entry = "COC(=O)[C@@]1(Cc2ccc(OC)cc2)[C@H]2c3cc(C(=O)N(C)C)n(CCSCCO)c3C[C@H]2CN1C(=O)c1ccccc1"
metric = "composite z-score"
result = 1.22

[[record]]
smiles_entry = "COCCOC(=O)N1C(=O)[C@@]2(c3cc(C#Cc4ccc(OC)cc4)ccc31)[C@H](C(N)=O)[C@H]1C(=O)O[C@H](c3ccccc3)[C@H](c3ccccc3)N1[C@@H]2c1ccc(O)cc1"
metric = "composite z-score"
result = -0.297


###

# System: Fibrinogen (Alexa647-labelled)
# TEST: Alexa647-fibrinogen binding to printed small molecules – biochemical, small-molecule microarray, 635/667 nm fluorescence, artefact control for SMM control-protein annotation, profiling panel (AID 1131);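 further: z-score merges 667 nm fluorescence with per-spot signal-to-noise over triplicate slides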
# RUN_PARAMETERS: fibrinogen-A647 binding fluorescence, higher = more signal
Overview of recorded composite z-score for various compounds
METRIC: composite z-score

[[record]]
compound = "CN(C)CCCC[C@@H]1NC(=O)[C@H]2C[C@@H](C(=O)NCCCCCNC(=O)CS)[C@@H](c3ccc(O)cc3)N2C1=O"
result = -0.293

[[record]]
compound = "COCCOC(=O)N1C(=O)[C@@]2(c3ccccc31)[C@H](c1ccc(O)cc1)N1[C@H](c3ccccc3)[C@H](c3ccccc3)OC(=O)[C@H]1[C@@H]2C(N)=O"
result = -1.35

[[record]]
compound = "COc1cc2c(cc1O)C(c1ccc(CN3CCCC3)cc1)N(Cc1sc3ccccc3c1Cl)CC2 (configuration not stated)"
result = 0.455

[[record]]
compound = "O=C1O[C@@H](c2ccccc2)[C@@H](c2ccccc2)N2[C@@H](c3ccccc3OCCO)[C@]3(C(=O)Nc4ccc(C#CC5(O)CCCCCC5)cc43)[C@@H](C(=O)NC[C@H](O)c3ccccc3)[C@H]12"
result = -0.51

[[record]]
compound = "COCCCNC(=O)[C@]1(Cc2ccccc2N=[N+]=[N-])N=C(c2ccc(OCCCO)cc2)O[C@@H]1c1ccccc1CN=[N+]=[N-]"
result = 0.947

[[record]]
compound = "O=c1cccc(-c2ccccc2)o1"
result = -0.468

[[record]]
compound = "CO[C@H]1O[C@H](CO)[C@@H](OC(=O)Nc2ccc3c(c2)OCO3)[C@H](OC(=O)Nc2ccc3c(c2)OCO3)[C@H]1OC(=O)Nc1ccc2c(c1)OCO2"
result = 0.86

[[record]]
compound = "O=C(NCC(O)CO)[C@]1(CCS(=O)(=O)c2ccccc2)N=C(c2ccc(OCCCO)cc2)O[C@@H]1c1ccccc1 (some centres not stated)"
result = 0.976

[[record]]
compound = "COC(=O)[C@@]1(Cc2ccc(OC)cc2)[C@H]2c3cc(C(=O)N4CCCC4)n(CCN4CCOCC4)c3C[C@H]2CN1C(=O)c1ccccc1"
result = 0.998

[[record]]
compound = "COc1ccccc1CN1C(=O)c2ccccc2[C@](Cc2ccccc2I)(C(=O)NC2CC2)[C@@H]1c1ccc(CO)cc1"
result = 0.987

[[record]]
compound = "CC(C)N1C(=O)c2ccccc2[C@](C)(C(=O)NC2CC2)[C@@H]1c1ccc(CO)cc1"
result = 0.803

[[record]]
compound = "O=C(NCC(O)CO)[C@@]1(Cc2ccccc2)COC(c2ccc(OCCCO)cc2)=N1 (some centres not stated)"
result = 0.531

[[record]]
compound = "CCCCCCC#C[Si](O[C@H](c1ccccc1)c1cn([C@H](C)c2ccccc2)nn1)(C(C)C)C(C)C"
result = 0.574

[[record]]
compound = "C=CCOC(=O)[C@H]1[C@@H]2C(=O)O[C@@H](c3ccccc3)[C@@H](c3ccccc3)N2[C@@H](c2ccc(OCCOC(=O)[C@@H]3C[C@@H]4C(=O)NCC(=O)N4[C@@H]3c3ccc(O)cc3)cc2)[C@]12C(=O)Nc1ccc(I)cc12"
result = 0.597

[[record]]
compound = "C=CCOC(=O)[C@@H]1[C@H]2C(=O)O[C@H](c3ccccc3)[C@H](c3ccccc3)N2[C@H](c2ccc(OCCOC(=O)[C@H]3C[C@H]4C(=O)N[C@@H](CCCC[N+](C)(C)C)C(=O)N4[C@H]3c3cccc(OCCO)c3)cc2)[C@@]12C(=O)Nc1ccc(I)cc12"
result = 0.496

[[record]]
compound = "O=C1O[C@H](c2ccccc2)[C@H](c2ccccc2)N2[C@H]1[C@@H](C(=O)NC[C@H](O)c1ccccc1)[C@]1(C(=O)Nc3ccc(C#CC4=CCCCC4)cc31)[C@H]2c1ccc(O)cc1"
result = 0.826

[[record]]
compound = "CCCNC(=O)[C@@]1(C)c2ccccc2C(=O)N(Cc2cc(F)cc(C(F)(F)F)c2)[C@H]1c1ccc(CO)cc1"
result = -1.73

[[record]]
compound = "CCCNC(=O)[C@@]1(C)c2ccccc2C(=O)N(Cc2ccc(OC(F)(F)F)cc2)[C@H]1c1ccc(CO)cc1"
result = 0.264

[[record]]
compound = "O=C1[C@H]2C=C(Br)[C@H](C[C@@H]2OCCOCCO)[C@@]12CO2"
result = 0.138

[[record]]
compound = "[N-]=[N+]=NCc1ccccc1[C@H]1OC(c2ccc(OCCCO)cc2)=N[C@@]1(Cc1ccccc1)C(=O)NCC(O)CO (some centres not stated)"
result = 0.726

[[record]]
compound = "C=C(C(=O)CC[C@@H](OC(C)=O)c1ccc(OCCO)cc1)C(C)C"
result = 0.933

[[record]]
compound = "COc1ccc([Si](C)(C)[C@@H]2[C@@H](CCO)O[C@]3(C(=O)N(Cc4ccccc4)c4ccc(N(C=O)c5ccccc5)cc43)[C@H]2C)cc1"
result = 0.181


###

# TEST: JC-1 mitochondrial signal, unstimulated MM1S myeloma – cell-based, JC-1 fluorescence, 24 h, 100 nL compound, profiling panel (AID 1170); further: test concentration not given here
# RUN_PARAMETERS: MM1S mitochondrial potential, higher = more signal
METRIC: z-score

[[record]]
smiles_entry = "C=CCN1Cc2ccccc2C[C@@]2(COC(c3ccc(OCCCO)cc3)=N2)C1=O"
metric = "z-score"
result = -2.19

[[record]]
smiles_entry = "COCCOC(=O)N1C(=O)[C@@]2(c3cc(C#CC4(O)CCCCCC4)ccc31)[C@H](c1ccc(O)cc1)N1[C@H](c3ccccc3)[C@H](c3ccccc3)OC(=O)[C@H]1[C@@H]2C(=O)N1CCc2cc(OC)c(OC)cc2C1"
metric = "z-score"
result = -0.494

[[record]]
smiles_entry = "O=C(NCc1ccccc1)[C@@H]1c2ccccc2C(=O)N(Cc2cc(F)cc(C(F)(F)F)c2)[C@H]1c1ccc(CO)cc1"
metric = "z-score"
result = -0.511

[[record]]
smiles_entry = "C=CC[C@@]1(C(N)=O)N=C(c2ccc(OCCCO)cc2)O[C@@H]1c1ccccc1N=[N+]=[N-]"
metric = "z-score"
result = 0.759

[[record]]
smiles_entry = "COC(=O)c1nc2oc1CC[C@@H](CO)NC(=O)N(C)Cc1cn(nn1)C[C@H](Cc1ccccc1)NC2=O"
metric = "z-score"
result = -1.48

[[record]]
smiles_entry = "CC(C)(C)OC(=O)CC[C@@]1(C(N)=O)N=C(c2ccc(OCCCO)cc2)O[C@@H]1c1ccccc1N=[N+]=[N-]"
metric = "z-score"
result = -0.706

[[record]]
smiles_entry = "C[N+](C)(C)CCCC[C@@H]1NC(=O)[C@@H]2C[C@H](C(=O)NCCCCCCNC(=O)CS)[C@H](c3cccc(OCCO)c3)N2C1=O"
metric = "z-score"
result = -0.677

